Consider the following compounds and their measured IC50 readings.
ASSAY SYSTEM: Protein smoothened (Homo sapiens, UniProt Q99835)
Sequence (Q99835 whole entry): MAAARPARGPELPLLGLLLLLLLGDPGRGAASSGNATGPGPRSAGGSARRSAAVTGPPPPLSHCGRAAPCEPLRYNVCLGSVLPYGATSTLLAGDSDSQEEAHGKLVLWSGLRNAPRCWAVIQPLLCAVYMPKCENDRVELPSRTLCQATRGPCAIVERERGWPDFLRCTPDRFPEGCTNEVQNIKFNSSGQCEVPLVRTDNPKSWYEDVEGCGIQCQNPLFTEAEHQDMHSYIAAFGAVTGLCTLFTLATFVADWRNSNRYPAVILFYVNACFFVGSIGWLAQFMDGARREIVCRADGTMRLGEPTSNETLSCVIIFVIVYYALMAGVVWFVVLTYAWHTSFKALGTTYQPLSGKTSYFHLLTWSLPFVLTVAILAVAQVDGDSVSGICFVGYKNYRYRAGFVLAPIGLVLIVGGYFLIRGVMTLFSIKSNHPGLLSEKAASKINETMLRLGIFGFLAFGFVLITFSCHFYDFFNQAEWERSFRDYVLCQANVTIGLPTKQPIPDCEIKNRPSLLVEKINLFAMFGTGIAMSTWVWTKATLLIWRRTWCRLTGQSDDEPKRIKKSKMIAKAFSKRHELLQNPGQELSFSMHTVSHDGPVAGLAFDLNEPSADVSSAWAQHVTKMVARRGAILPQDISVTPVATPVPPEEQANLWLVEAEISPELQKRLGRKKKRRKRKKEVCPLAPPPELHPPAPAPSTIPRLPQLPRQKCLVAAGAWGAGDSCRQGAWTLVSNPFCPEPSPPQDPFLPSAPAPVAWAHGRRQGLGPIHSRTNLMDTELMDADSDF
EXPERIMENT DESCRIPTION: Displacement of BODIPY-cyclopamine from human Smo expressed in HEK293 cells in presence of 2% fetal calf serum
Format: cell-based
Give the number; nM is assumed, so skip it.

Example entries and their recorded answers appear below.
[
  {
    "COMPOUND": "O=C(Nc1ccccc1-c1ccccc1)N1CCN2C(=O)N(C3CC3c3ccccc3)C(=O)C2C1 (stereo in doubt; 6)",
    "UNIT LABEL": "nM",
    "IC50": 35
  },
  {
    "COMPOUND": "O=C(Nc1ccccc1-c1ccccc1)N1CCN2C(=O)N(C3CC3c3ccccc3)C(=O)C2C1 (stereo in doubt; 3)",
    "UNIT LABEL": "nM",
    "IC50": 48
  },
  {
    "COMPOUND": "N#Cc1cccc(-c2ncccc2NC(=O)N2CCN3C(=O)N([C@H]4C[C@@H]4c4ccccc4)C(=O)[C@@H]3C2)c1",
    "UNIT LABEL": "nM",
    "IC50": 16
  }
]

Turning to the following compound.
In: Look at this compound and give its reported IC50. `C[C@@]12CN(C(=O)Nc3ccnn3-c3ccccc3)CCN1C(=O)N([C@H]1C[C@@H]1c1ccccc1)C2=O`
Out: 13
